# Tested on: SK-MEL-28 melanoma
# Test Details: NCI-60 one-dose screen, 48 h
# Applied Conditions: 10 µM unless noted
About 83,000 compounds went through this panel and 20% of them were active in at least one assay; those are over-represented in the sample as a whole. Calls of active or inactive are those of the source. Rule for the calls: active = growth percent below 10; inactive = the rest.
Give your call using only these classes: active, inactive

INSERT INTO assay_data (molecule, study_system, category_label) VALUES
  ('CC(C)Cn1cnc2c(NCn3nc(-c4cc(Cl)cc(Cl)c4Cl)n(/N=C/c4ccc(Cl)cc4)c3=S)nc3ccccc3c21', 'SK-MEL-28 melanoma', 'inactive');

Incoming: Just curious, what result did CCCCCCCCCCCCCCCCCC1=NC(C)(CO)CO1 (stereo not drawn) get here?
Outgoing: inactive

Incoming: Just curious, what result did `COc1cc(/C=C2\CN(S(=O)(=O)c3ccc(C)cc3)C/C(=C\c3cc(CN4CCOCC4)c(O)c(OC)c3)C2=O)cc(CN2CCOCC2)c1O` get here?
Outgoing: active

###

# System: HCT-15 colon
# Test Details: NCI-60 one-dose screen, 48 h (100 = growth as untreated, 0 = no growth, -100 = all killed)
# Applied Conditions: 10 µM unless noted
# Description: Growth inhibition of the HCT-15 human tumor cell line is measured as a screen for anti-cancer activity. Cells are grown in 96 well plates and exposed to the test compound for 48 hours. Compounds are tested at a single concentration, which is 10^-5 M for most compounds. The reported endpoint is percent growth (GI% or GIPRCNT), where numbers from 0 - 100% represent growth inhibition, and numbers from -100% - 0 represent cell death. For example, a value of 40 represents 60% growth inhibition. […]
This is part of a sample that, as a whole, favours compounds with a hit. Of some 83,000 tested, about 20% had one in any assay.
Measurement Label: growth (%)
Give bare numbers, in %.

Examples from the recorded data:
INSERT INTO results (compound, study_system, measurement_label, endpoint_result) VALUES
  ('COc1ccc(-c2nc3sc4c(c3c(=O)[nH]2)CCCCCC4)cc1', 'HCT-15 colon', 'growth', 27.7),
  ('CCCCCCCCCCCCC1CCCC(C)C1 (centres undefined)', 'HCT-15 colon', 'growth', 97.5);

For every item below, please supply its growth.
1. CCOc1cc(/C=C/C(=O)CC(=O)/C=C/c2ccc(OC(=O)CNCCN(CC)CC)c(OCC)c2)ccc1OC(=O)CNCCN(CC)CC
2. O=C(NCCCl)NCCN1c2nc3ccccc3cc2Sc2cc3ccccc3nc21

Outgoing:
[-59.1, 51.9]

For every item below, please supply its growth.
1. CCN(CC)c1ccc(/C=C/C(=O)c2cccc(NS(C)(=O)=O)c2)cc1
2. CC[C@H]1CN2CCc3cc(OC)c(OC)cc3C2C[C@@H]1CC1NCCc2cc(OC)c(OC)cc21 (some centres undefined)
3. COC(=O)[C@H]1[C@H]2C[C@@H]3c4[nH]c5cc(OC)ccc5c4CCN3C[C@H]2C[C@@H](OC(=O)/C=C/c2cc(OC)c(OC)c(OC)c2)[C@@H]1OC

Outgoing:
1. 27.8
2. -18
3. 39.9

For every item below, please supply its growth.
1. CCOC(=O)Nc1cc(-c2ccc(C)c(NS(C)(=O)=O)c2)nn2c(C)nnc12
2. O=C(O)CNC(=O)C1(N2C(=O)c3ccccc3C2=O)CCCC1

Outgoing:
9.95
106
